System: NCI-H838
assay.overview: relative viability (nuclei count vs DMSO), 5 days (fraction); higher = more cells survive
condition.summary: first compound 0.2 µM
Examples of molecules with documented relative viability follow.
readout: relative viability

>>> result_value("COCC1(CO)C(=O)C2CCN1CC2 (stereo not drawn) [PRIMA-1MET] + COc1cc2c(Oc3ccc(NC(=O)C4(C(=O)Nc5ccc(F)cc5)CC4)cc3F)ccnc2cc1OCCCN1CCOCC1 [Foretinib] (partner 0.25 µM)")
1.23
>>> result_value("COCC1(CO)C(=O)C2CCN1CC2 (stereo not drawn) [PRIMA-1MET] + Cc1cc(Nc2cc(N3CCN(C)CC3)nc(Sc3ccc(NC(=O)C4CC4)cc3)n2)n[nH]1 [Tozasertib] (partner 0.1 µM)")
0.291
>>> result_value("COCC1(CO)C(=O)C2CCN1CC2 (stereo not drawn) [PRIMA-1MET] + CC(=O)c1c(C)c2cnc(Nc3ccc(N4CCNCC4)cn3)nc2n(C2CCCC2)c1=O [Palbociclib] (partner 0.5 µM)")
0.261
>>> result_value("COCC1(CO)C(=O)C2CCN1CC2 (stereo not drawn) [PRIMA-1MET] + C[C@]1(O)C[C@@H](c2nc(-c3ccc4ccc(-c5ccccc5)nc4c3)c3c(N)nccn32)C1 [Linsitinib] (partner 1 µM)")
1.21
>>> result_value("COCC1(CO)C(=O)C2CCN1CC2 (stereo not drawn) [PRIMA-1MET] + CC1(C)CCC(c2ccc(Cl)cc2)=C(CN2CCN(c3ccc(C(=O)NS(=O)(=O)c4ccc(N[C@H](CCN5CCOCC5)CSc5ccccc5)c(S(=O)(=O)C(F)(F)F)c4)cc3)CC2)C1 [Navitoclax] (partner 0.5 µM)")
1.38
>>> result_value("COCC1(CO)C(=O)C2CCN1CC2 (stereo not drawn) [PRIMA-1MET] + NC(=O)Nc1cc(-c2cccc(F)c2)sc1C(=O)N[C@H]1CCCNC1 [AZD7762] (partner 0.2 µM)")
0.989
>>> result_value("COCC1(CO)C(=O)C2CCN1CC2 (stereo not drawn) [PRIMA-1MET] + Nc1nc2[nH]cc(CCc3ccc(C(=O)N[C@@H](CCC(=O)O)C(=O)O)cc3)c2c(=O)[nH]1 [Pemetrexed] (partner 0.2 µM)")
0.247
>>> result_value("COCC1(CO)C(=O)C2CCN1CC2 (stereo not drawn) [PRIMA-1MET] + CC(C)C[C@H](NC(=O)[C@H](Cc1ccccc1)NC(=O)c1cnccn1)B(O)O [Bortezomib] (partner 0.002 µM)")
0.9

----------
Tested on: SK-MES-1
assay.overview: relative viability (nuclei count vs DMSO), 5 days (fraction); higher = more cells survive
condition.summary: first compound 0.01 µM
readout: relative viability

>>> result_value("O=c1cc(N2CCOCC2)oc2c(-c3cccc4c3sc3ccccc34)cccc12 + COc1cccc2cc(-c3nc([C@H]4CC[C@H](C(=O)O)CC4)n4ncnc(N)c34)[nH]c12 [OSI-027] (partner 0.5 µM)")
0.613
>>> result_value("O=c1cc(N2CCOCC2)oc2c(-c3cccc4c3sc3ccccc34)cccc12 + COc1cc2c(Oc3ccc(NC(=O)C4(C(=O)Nc5ccc(F)cc5)CC4)cc3F)ccnc2cc1OCCCN1CCOCC1 [Foretinib] (partner 0.25 µM)")
1.13
>>> result_value("O=c1cc(N2CCOCC2)oc2c(-c3cccc4c3sc3ccccc34)cccc12 + CC(=O)Nc1cccc(-n2c(=O)n(C3CC3)c(=O)c3c(Nc4ccc(I)cc4F)n(C)c(=O)c(C)c32)c1 [Trametinib] (partner 0.02 µM)")
0.546
>>> result_value("CCN(CC)CCCCNc1ncc2cc(-c3cc(OC)cc(OC)c3)c(NC(=O)NC(C)(C)C)nc2n1 + Cc1nc(NC(=O)N2CCC[C@H]2C(N)=O)sc1-c1ccnc(C(C)(C)C(F)(F)F)c1 [Alpelisib] (partner 2 µM)")
1.12
>>> result_value("CCN(CC)CCCCNc1ncc2cc(-c3cc(OC)cc(OC)c3)c(NC(=O)NC(C)(C)C)nc2n1 + C[C@@H](Oc1cc(-c2cnn(C3CCNCC3)c2)cnc1N)c1c(Cl)ccc(F)c1Cl [Crizotinib] (partner 1 µM)")
1.06
>>> result_value("CCN(CC)CCCCNc1ncc2cc(-c3cc(OC)cc(OC)c3)c(NC(=O)NC(C)(C)C)nc2n1 + N=C(N)NC(=N)NCCc1ccccc1 [Phenformin] (partner 250 µM)")
0.706
>>> result_value("O=c1cc(N2CCOCC2)oc2c(-c3cccc4c3sc3ccccc34)cccc12 + C[C@]1(O)C[C@@H](c2nc(-c3ccc4ccc(-c5ccccc5)nc4c3)c3c(N)nccn32)C1 [Linsitinib] (partner 1 µM)")
1.17
>>> result_value("CCN(CC)CCCCNc1ncc2cc(-c3cc(OC)cc(OC)c3)c(NC(=O)NC(C)(C)C)nc2n1 + Nc1ncn([C@H]2C[C@H](O)[C@@H](CO)O2)c(=O)n1 [Decitabine] (partner 2 µM)")
0.435
>>> result_value("O=c1cc(N2CCOCC2)oc2c(-c3cccc4c3sc3ccccc34)cccc12 + C[C@@H](Oc1cc(-c2cnn(C3CCNCC3)c2)cnc1N)c1c(Cl)ccc(F)c1Cl [Crizotinib] (partner 1 µM)")
0.965

----------
Examples of compounds with documented relative viability follow.
Test system: NCI-H23
assay.overview: relative viability (nuclei count vs DMSO), 5 days (fraction); higher = more cells survive
condition.summary: first compound 6.325 µM
readout: relative viability

>>> result_value("COCC1(CO)C(=O)C2CCN1CC2 (centres undefined) [PRIMA-1MET] + Nc1nc2[nH]cc(CCc3ccc(C(=O)N[C@@H](CCC(=O)O)C(=O)O)cc3)c2c(=O)[nH]1 [Pemetrexed] (partner 0.2 µM)")
0.579
>>> result_value("COCC1(CO)C(=O)C2CCN1CC2 (centres undefined) [PRIMA-1MET] + Cc1cc(Nc2cc(N3CCN(C)CC3)nc(Sc3ccc(NC(=O)C4CC4)cc3)n2)n[nH]1 [Tozasertib] (partner 0.1 µM)")
0.292
>>> result_value("COCC1(CO)C(=O)C2CCN1CC2 (centres undefined) [PRIMA-1MET] + COc1cc2c(Oc3ccc(NC(=O)C4(C(=O)Nc5ccc(F)cc5)CC4)cc3F)ccnc2cc1OCCCN1CCOCC1 [Foretinib] (partner 0.25 µM)")
0.966
>>> result_value("COCC1(CO)C(=O)C2CCN1CC2 (centres undefined) [PRIMA-1MET] + C[C@@H](Oc1cc(-c2cnn(C3CCNCC3)c2)cnc1N)c1c(Cl)ccc(F)c1Cl [Crizotinib] (partner 1 µM)")
0.406
>>> result_value("COCC1(CO)C(=O)C2CCN1CC2 (centres undefined) [PRIMA-1MET] + CC(=O)Nc1cccc(-n2c(=O)n(C3CC3)c(=O)c3c(Nc4ccc(I)cc4F)n(C)c(=O)c(C)c32)c1 [Trametinib] (partner 0.02 µM)")
0.328
>>> result_value("COCC1(CO)C(=O)C2CCN1CC2 (centres undefined) [PRIMA-1MET] + Cc1nc(NC(=O)N2CCC[C@H]2C(N)=O)sc1-c1ccnc(C(C)(C)C(F)(F)F)c1 [Alpelisib] (partner 2 µM)")
0.669
>>> result_value("COCC1(CO)C(=O)C2CCN1CC2 (centres undefined) [PRIMA-1MET] + N=C(N)NC(=N)NCCc1ccccc1 [Phenformin] (partner 250 µM)")
0.842
>>> result_value("COCC1(CO)C(=O)C2CCN1CC2 (centres undefined) [PRIMA-1MET] + NC(=O)Nc1cc(-c2cccc(F)c2)sc1C(=O)N[C@H]1CCCNC1 [AZD7762] (partner 0.2 µM)")
0.209
>>> result_value("COCC1(CO)C(=O)C2CCN1CC2 (centres undefined) [PRIMA-1MET] + CCNC(=O)c1noc(-c2cc(C(C)C)c(O)cc2O)c1-c1ccc(CN2CCOCC2)cc1 [Luminespib] (partner 0.01 µM)")
0.209

----------
System: NCI-H661
assay.overview: relative viability (nuclei count vs DMSO), 5 days (fraction); higher = more cells survive
condition.summary: first compound 1 µM
readout: relative viability

>>> result_value("CCN(CC)CCCCNc1ncc2cc(-c3cc(OC)cc(OC)c3)c(NC(=O)NC(C)(C)C)nc2n1 + Cc1nc(Nc2ncc(C(=O)Nc3c(C)cccc3Cl)s2)cc(N2CCN(CCO)CC2)n1 [Dasatinib] (partner 0.075 µM)")
0.644
>>> result_value("O=c1cc(N2CCOCC2)oc2c(-c3cccc4c3sc3ccccc34)cccc12 + C[C@]1(O)C[C@@H](c2nc(-c3ccc4ccc(-c5ccccc5)nc4c3)c3c(N)nccn32)C1 [Linsitinib] (partner 1 µM)")
0.614
>>> result_value("O=c1cc(N2CCOCC2)oc2c(-c3cccc4c3sc3ccccc34)cccc12 + CS(=O)(=O)CCNCc1ccc(-c2ccc3ncnc(Nc4ccc(OCc5cccc(F)c5)c(Cl)c4)c3c2)o1 [Lapatinib] (partner 2 µM)")
0.522
>>> result_value("O=c1cc(N2CCOCC2)oc2c(-c3cccc4c3sc3ccccc34)cccc12 + Cc1cc(Nc2cc(N3CCN(C)CC3)nc(Sc3ccc(NC(=O)C4CC4)cc3)n2)n[nH]1 [Tozasertib] (partner 0.1 µM)")
0.362
>>> result_value("CCN(CC)CCCCNc1ncc2cc(-c3cc(OC)cc(OC)c3)c(NC(=O)NC(C)(C)C)nc2n1 + Nc1ncn([C@H]2C[C@H](O)[C@@H](CO)O2)c(=O)n1 [Decitabine] (partner 2 µM)")
0.455
>>> result_value("CCN(CC)CCCCNc1ncc2cc(-c3cc(OC)cc(OC)c3)c(NC(=O)NC(C)(C)C)nc2n1 + CS(=O)(=O)N1CCN(Cc2cc3nc(-c4cccc5[nH]ncc45)nc(N4CCOCC4)c3s2)CC1 [Pictilisib] (partner 1 µM)")
0.344
>>> result_value("CCN(CC)CCCCNc1ncc2cc(-c3cc(OC)cc(OC)c3)c(NC(=O)NC(C)(C)C)nc2n1 + CC(=O)c1c(C)c2cnc(Nc3ccc(N4CCNCC4)cn3)nc2n(C2CCCC2)c1=O [Palbociclib] (partner 0.5 µM)")
0.38
>>> result_value("O=c1cc(N2CCOCC2)oc2c(-c3cccc4c3sc3ccccc34)cccc12 + CC(C)C[C@H](NC(=O)[C@H](Cc1ccccc1)NC(=O)c1cnccn1)B(O)O [Bortezomib] (partner 0.002 µM)")
0.756
>>> result_value("O=c1cc(N2CCOCC2)oc2c(-c3cccc4c3sc3ccccc34)cccc12 + N=C(N)NC(=N)NCCc1ccccc1 [Phenformin] (partner 250 µM)")
0.285
>>> result_value("O=c1cc(N2CCOCC2)oc2c(-c3cccc4c3sc3ccccc34)cccc12 + COc1cc2c(Oc3ccc(NC(=O)C4(C(=O)Nc5ccc(F)cc5)CC4)cc3F)ccnc2cc1OCCCN1CCOCC1 [Foretinib] (partner 0.25 µM)")
1.03
>>> result_value("CCN(CC)CCCCNc1ncc2cc(-c3cc(OC)cc(OC)c3)c(NC(=O)NC(C)(C)C)nc2n1 + CS(=O)(=O)CCNCc1ccc(-c2ccc3ncnc(Nc4ccc(OCc5cccc(F)c5)c(Cl)c4)c3c2)o1 [Lapatinib] (partner 2 µM)")
0.493
